Target: T1, His-AmdR1R2-B (Staphylococcus aureus, UniProt Q5HH31 198-775)
T1 construct: also called rAmd; soluble Amd; not shown: BirA biotinylation site
T1 sequence: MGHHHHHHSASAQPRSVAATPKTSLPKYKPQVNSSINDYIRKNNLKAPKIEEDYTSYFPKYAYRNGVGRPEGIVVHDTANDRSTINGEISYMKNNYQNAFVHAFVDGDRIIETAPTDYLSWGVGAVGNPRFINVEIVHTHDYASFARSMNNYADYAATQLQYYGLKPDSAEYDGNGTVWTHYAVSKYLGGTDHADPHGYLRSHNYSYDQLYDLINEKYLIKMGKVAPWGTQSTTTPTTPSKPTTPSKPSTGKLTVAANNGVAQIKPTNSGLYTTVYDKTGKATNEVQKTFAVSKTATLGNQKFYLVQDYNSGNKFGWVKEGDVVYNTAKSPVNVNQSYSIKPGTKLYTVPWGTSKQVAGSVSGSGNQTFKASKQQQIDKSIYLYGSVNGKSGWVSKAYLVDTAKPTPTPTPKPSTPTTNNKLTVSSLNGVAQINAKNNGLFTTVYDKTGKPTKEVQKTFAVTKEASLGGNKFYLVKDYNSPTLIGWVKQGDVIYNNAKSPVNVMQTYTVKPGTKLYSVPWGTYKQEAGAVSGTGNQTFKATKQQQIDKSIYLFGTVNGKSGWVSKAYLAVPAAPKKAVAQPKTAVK
Assay: SPR, Biacore T-200; immobilized (captured) mAb, soluble His-AmdR1R2-B
Readout label: Kd (nM)
Write the number in nM without appending the unit.

[ask] Give the reported value of Kd for this record: anti-Amd mAb Amd1.1 (antibody, IgG1, V domains shown) VH: QQSGAELVKPGASVKLSCTASGFNIKDTYIHWVKQRPEQGLEWIGRIDPANGITNYDPKFQGRATITADTSSNIAYLQLTSLTSEGTAVYYCARGGYLSPYAMDYWGQGTSVTVSS VL: ENVLTQSPAIMSASLGEKVTMTCRASSSVNYMFWFQQKSDASPKLWIYYTSNLAPGVPARFSGSGSGNSYSLTISSMEGEDAATYYCQEFTSFPYTFG
[reply] 2.5

[ask] Give the reported value of Kd for this record: anti-Amd mAb Amd1.9 (antibody, V domains shown, Mouse hybridoma mAb (Fusion #1), IgG1; The variable domains are incomplete at the termini) VH: VESGGGLVKPGGSLKLSCAASGFTFSSYAMSWVRQTPKKSLEWVASITSGGSAYYPDSVKGRFTISRDNARNILNLQMSSLRSEDTAMYYCARDDGYFDYWGQGTTLTVSS VL: DIQMTQSPASLSVSVGETVTITCRTSENIFSNFAWYQQQPGKSPQLLVYGATNLADGVPSRFSGSGSGTQYSLKITSLQSEDFGSYYCQHFWGSPWTF
[reply] 2.6

[ask] Give the reported value of Kd for this record: anti-Amd mAb Amd2.2 (antibody, V domains shown, Mouse hybridoma mAb (Fusion #2), IgG1; The VH is incomplete at the N-terminus) VH: ESGPELVKPGASVKISCKASGYTFTDYNMHWVRQSHGKSLEWIGYIYPYNGGTGYNQKFKSKATLTVDNSSSTAYMELRSLTSEDSAVYYCAREDGYYGYFDYWGQGTTLTGSS VL: EIVLTQSPAITAASLGQKVTITCSASSSVNYMHWYQQKSGTSPKPWIYEISKLASGVPARFSGSGSGTSYSLTISSMEAEDAAIYYCQQWNYPLITFGAGTKLELK
[reply] 1.4

[ask] Give the reported value of Kd for this record: anti-Amd mAb Amd1.11 (antibody, V domains shown, Mouse hybridoma mAb (Fusion #1), IgG1; The VL is incomplete at the C-terminus) VH: QIQLVQSGPELKKPGETVKISCKASGYTFTNYGMNWVKQAPGKGLEWMGWINTYTGEPTYADDFKGRFAFSLETSASTAYLLINNLKNEDTATYFCARRDGYFDAMDYWGQGTSVTVSS VL: DILLTQSPAILSVSPGERVSFSCRASQSIGTSIHWYQQRTNGSPRLLIKYASESISGIPSRFSGSGSGTDFTLSINSVESEDIADYYCQQSNSWPALTFG
[reply] 3.4

Attribution: patent US20160311925A1
